Provenance of the data: ChEMBL document CHEMBL1146085

Where a SMILES comes first, the peptide text is derived from it. [ ]: non-standard residue; d: D form. The star is where a group is joined. alloThr(PO3H2) = C[C@H](OP(=O)(O)O)[C@H](N)C(=O)O; Biotin = O=C1N[C@H]2[C@H](CS[C@H]2CCCCC(=O)*)N1; Phe(4-tBu) = CC(C)(C)c1ccc(C[C@H](N)C(=O)O)cc1; Bip = N[C@@H](Cc1ccc(-c2ccccc2)cc1)C(=O)O; 2Nal = N[C@@H](Cc1ccc2ccccc2c1)C(=O)O; Bta = N[C@@H](Cc1csc2ccccc12)C(=O)O; Tic = O=C(O)[C@@H]1Cc2ccccc2CN1; 2Thi = N[C@@H](Cc1cccs1)C(=O)O; Cha = N[C@@H](CC1CCCCC1)C(=O)O; Pip = O=C(O)[C@@H]1CCCCN1; NMeA = CN[C@@H](C)C(=O)O
Target or system Peptidyl-prolyl cis-trans isomerase NIMA-interacting 1 (Homo sapiens, UniProt Q13526); recorded quantity pIC50.
Units for pIC50: none; it is -log10 of a concentration expressed in mol/L.

CC(=O)N[C@@H](CCCCNC(=O)CCCC[C@@H]1SC[C@@H]2NC(=O)N[C@@H]21)C(=O)N[C@@H](C)C(=O)N[C@@H](C)C(=O)N[C@@H](Cc1csc2ccccc12)C(=O)N[C@H](C(=O)N1CCC[C@H]1C(=O)N[C@@H](Cc1ccc2ccccc2c1)C(=O)N[C@@H](CCC(N)=O)C(N)=O)[C@H](C)OP(=O)(O)O (Ac-K(Biotin)AA[Bta][alloThr(PO3H2)]P[2Nal]Q-NH2) ... 4.70

Please fill in: pIC50 reported for CC(=O)N[C@@H](CCCCNC(=O)CCCC[C@@H]1SC[C@@H]2NC(=O)N[C@@H]21)C(=O)N[C@@H](C)C(=O)N[C@@H](C)C(=O)N[C@@H](Cc1ccc(-c2ccccc2)cc1)C(=O)N[C@H](C(=O)N1CCC[C@H]1C(=O)N[C@@H](Cc1ccc2ccccc2c1)C(=O)N[C@@H](CCC(N)=O)C(N)=O)[C@H](C)OP(=O)(O)O (Ac-K(Biotin)AA[Bip][alloThr(PO3H2)]P[2Nal]Q-NH2) = 4.74

Please fill in: pIC50 reported for CC(=O)N[C@@H](CCCCNC(=O)CCCC[C@@H]1SC[C@@H]2NC(=O)N[C@@H]21)C(=O)N[C@@H](C)C(=O)N[C@@H](C)C(=O)N[C@@H](Cc1cccs1)C(=O)N[C@H](C(=O)N(C)[C@@H](C)C(=O)N[C@@H](Cc1ccc2ccccc2c1)C(=O)N[C@@H](CCC(N)=O)C(N)=O)[C@H](C)OP(=O)(O)O (Ac-K(Biotin)AA[2Thi][alloThr(PO3H2)][NMeA][2Nal]Q-NH2) = 4.82

Please fill in: pIC50 reported for CC(=O)N[C@@H](CCCCNC(=O)CCCC[C@@H]1SC[C@@H]2NC(=O)N[C@@H]21)C(=O)N[C@@H](C)C(=O)N[C@@H](C)C(=O)N[C@@H](Cc1ccc(C(C)(C)C)cc1)C(=O)N[C@H](C(=O)N1Cc2ccccc2C[C@H]1C(=O)N[C@@H](Cc1csc2ccccc12)C(=O)N[C@@H](CCC(N)=O)C(N)=O)[C@H](C)OP(=O)(O)O (Ac-K(Biotin)AA[Phe(4-tBu)][alloThr(PO3H2)][Tic][Bta]Q-NH2) = 5.10

Please fill in: pIC50 reported for CC(=O)N[C@@H](CCCCNC(=O)CCCC[C@@H]1SC[C@@H]2NC(=O)N[C@@H]21)C(=O)N[C@@H](C)C(=O)N[C@@H](C)C(=O)N[C@@H](Cc1csc2ccccc12)C(=O)N[C@H](C(=O)N1CCCC[C@H]1C(=O)N[C@@H](Cc1ccc2ccccc2c1)C(=O)N[C@@H](CCC(N)=O)C(N)=O)[C@H](C)OP(=O)(O)O (Ac-K(Biotin)AA[Bta][alloThr(PO3H2)][Pip][2Nal]Q-NH2) = 6.68

Please fill in: pIC50 reported for CC(=O)N[C@@H](CCCCNC(=O)CCCC[C@@H]1SC[C@@H]2NC(=O)N[C@@H]21)C(=O)N[C@@H](C)C(=O)N[C@@H](C)C(=O)N[C@@H](CC1CCCCC1)C(=O)N[C@H](C(=O)N1Cc2ccccc2C[C@H]1C(=O)N[C@@H](Cc1ccc2ccccc2c1)C(=O)N[C@@H](CCC(N)=O)C(N)=O)[C@H](C)OP(=O)(O)O (Ac-K(Biotin)AA[Cha][alloThr(PO3H2)][Tic][2Nal]Q-NH2) = 4.60

Please fill in: pIC50 reported for CC(=O)N[C@@H](CCCCNC(=O)CCCC[C@@H]1SC[C@@H]2NC(=O)N[C@@H]21)C(=O)N[C@@H](C)C(=O)N[C@@H](C)C(=O)N[C@@H](CC1CCCCC1)C(=O)N[C@H](C(=O)N(C)[C@@H](C)C(=O)N[C@@H](Cc1ccc2ccccc2c1)C(=O)N[C@@H](CCC(N)=O)C(N)=O)[C@H](C)OP(=O)(O)O (Ac-K(Biotin)AA[Cha][alloThr(PO3H2)][NMeA][2Nal]Q-NH2) = 5.15

Please fill in: pIC50 reported for CC(=O)N[C@@H](CCCCNC(=O)CCCC[C@@H]1SC[C@@H]2NC(=O)N[C@@H]21)C(=O)N[C@@H](C)C(=O)N[C@@H](C)C(=O)N[C@@H](Cc1ccccc1)C(=O)N[C@H](C(=O)N(C)[C@@H](C)C(=O)N[C@@H](Cc1csc2ccccc12)C(=O)N[C@@H](CCC(N)=O)C(N)=O)[C@H](C)OP(=O)(O)O (Ac-K(Biotin)AAF[alloThr(PO3H2)][NMeA][Bta]Q-NH2) = 4.70

Please fill in: pIC50 reported for CC(=O)N[C@@H](CCCCNC(=O)CCCC[C@@H]1SC[C@@H]2NC(=O)N[C@@H]21)C(=O)N[C@@H](C)C(=O)N[C@@H](C)C(=O)N[C@@H](Cc1ccc(-c2ccccc2)cc1)C(=O)N[C@H](C(=O)N1CCC[C@H]1C(=O)N[C@@H](Cc1csc2ccccc12)C(=O)N[C@@H](CCC(N)=O)C(N)=O)[C@H](C)OP(=O)(O)O (Ac-K(Biotin)AA[Bip][alloThr(PO3H2)]P[Bta]Q-NH2) = 4.82
